systemTested: Toll-like receptor 7/8 (Canis lupus familiaris) (UniProt A1XC23+H6BA89)
protocolSummary: Agonist activity at TLR7/8 in dog PBMC assessed as maximal increase in TNFalpha secretion at 20 uM after 30 to 48 hrs by ELISA
Format: cell-based
Calls of active or inactive are those of the source. The calls are words filed in the database; no cut-off is given here.
experimentalReadout: Activity

>>> readoutvalue("CCOCc1nc2c(N)nc3cc(Cl)ccc3c2n1CC(C)(C)O")
"Active"
>>> readoutvalue("CCOCc1nc2c(N)nc3cc(C#N)ccc3c2n1CC(C)C")
"Active"
>>> readoutvalue("CCOCc1nc2c(N)nc3ccccc3c2n1CC(C)(C)O [RESIQUIMOD]")
"Active"
>>> readoutvalue("CCCCc1nc2c(N)nc3cc(C#N)ccc3c2n1CC(C)(C)O")
"Active"
>>> readoutvalue("CCCCc1nc2c(N)nc3cc(OC)ccc3c2n1CC(C)C")
"Active"
>>> readoutvalue("CCOCc1nc2c(N)nc3cc(Cl)ccc3c2n1CC(C)C")
"Active"
>>> readoutvalue("CCCCc1nc2c(N)nc3cc(O)ccc3c2n1CC(C)C")
"Active"
>>> readoutvalue("CCCCc1nc2c(N)nc3cc(OC)ccc3c2n1CC(C)(C)O")
"Active"
>>> readoutvalue("CCCCc1nc2c(N)nc3cc(Cl)ccc3c2n1CC(C)C")
"Active"
>>> readoutvalue("CCCCc1nc2c(N)nc3cc(Cl)ccc3c2n1CC(C)(C)O")
"Active"
>>> readoutvalue("CCOCc1nc2c(N)nc3cc(C#N)ccc3c2n1CC(C)(C)O")
"Active"
>>> readoutvalue("CC(C)Cn1cnc2c(N)nc3ccccc3c21 [IMIQUIMOD]")
"Active"
>>> readoutvalue("CCCCc1nc2c(N)nc3cc(C#N)ccc3c2n1CC(C)C")
"Active"

* * *

systemTested: Toll-like receptor 7/8 (Canis lupus familiaris) (UniProt A1XC23+H6BA89)
protocolSummary: Agonist activity at TLR7/8 in dog PBMC assessed as IL-6 secretion at 20 uM after 29 hrs by ELISA (reference value: 310 +/- 90 pg/ml)
Format: cell-based
experimentalReadout: Activity (pg/mL)

>>> readoutvalue("CCCCc1nc2c(N)nc3cc(OC)ccc3c2n1CC(C)(C)O")
290
>>> readoutvalue("CCCCc1nc2c(N)nc3cc(O)ccc3c2n1CC(C)C")
330
>>> readoutvalue("CCOCc1nc2c(N)nc3cc(C#N)ccc3c2n1CC(C)(C)O")
214
>>> readoutvalue("CCCCc1nc2c(N)nc3cc(C#N)ccc3c2n1CC(C)(C)O")
290

* * *

Quick list: Activity per entry.
systemTested: Toll-like receptor 7/8 (Canis lupus familiaris) (UniProt A1XC23+H6BA89)
protocolSummary: Agonist activity at TLR7/8 in dog PBMC assessed as IFNgamma secretion at 20 uM after 29 hrs by ELISA (reference value: 0.4 +/- 0.7 pg/ml)
Type: cell-based
experimentalReadout: Activity

>>> readoutvalue("CCCCc1nc2c(N)nc3cc(C#N)ccc3c2n1CC(C)(C)O")
"12 pg/mL"
>>> readoutvalue("CCCCc1nc2c(N)nc3cc(C#N)ccc3c2n1CC(C)C")
"13 pg/mL"
>>> readoutvalue("CCOCc1nc2c(N)nc3cc(C#N)ccc3c2n1CC(C)C")
"4 pg/mL"
>>> readoutvalue("CC(C)Cn1cnc2c(N)nc3ccccc3c21")
"18 pg/mL"
>>> readoutvalue("CCCCc1nc2c(N)nc3cc(OC)ccc3c2n1CC(C)(C)O")
"14.5 pg/mL"
>>> readoutvalue("CCCCc1nc2c(N)nc3cc(O)ccc3c2n1CC(C)C")
"9 pg/mL"
>>> readoutvalue("CCCCc1nc2c(N)nc3cc(Cl)ccc3c2n1CC(C)C")
"7 pg/mL"
